Source of measurements: patent US20210032312A1

Target: T1, cynomolgus monkey CD8A on primary cynomolgus monkey CD8+ T cells (cynomolgus monkey, UniProt P01732 23-235 (human entry))
T1 construct: also called Cyno CD8alpha
T1 sequence (P01732 other isoform, or with tags, fused parts or gaps limits assumed): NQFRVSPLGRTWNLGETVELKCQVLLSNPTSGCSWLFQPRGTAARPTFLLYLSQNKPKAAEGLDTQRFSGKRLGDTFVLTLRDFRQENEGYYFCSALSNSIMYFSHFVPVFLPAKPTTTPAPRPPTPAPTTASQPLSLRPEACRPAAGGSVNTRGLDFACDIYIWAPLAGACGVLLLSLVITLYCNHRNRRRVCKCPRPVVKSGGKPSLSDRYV
Assay: flow cytometry, cyno CD8+ T cells, 0.2 uM FN3
measure: Cyno T-cell Binding 0.2 uM (MFI)

Example cases with answers are listed next.
What value of measured Cyno T-cell Binding 0.2 uM (MFI) is listed for P282FR9P1361_H4 (designed binder, FN3 domain) LPAPKNLVVSRVTEDSARLSWTAPDAAFDSFGIWYAEYGYSGEAIVLTVPGSERSYDLTGLKPGTEYDVAIYGVKGGSPSYPLSAIFTT ?
2500

What value of measured Cyno T-cell Binding 0.2 uM (MFI) is listed for P283AR9P1362_C7 (designed binder, FN3 domain) LPAPKNLVVSRVTEDSARLSWVKRATSFDSFLIQYQESEKVGEAIVLTVPGSERSYDLTGLKPGTEYTVSIYGVDVRYNEGQPIWSNPLSAIFTT ?
5520

P = P282ER9P1360_C6 (designed binder, FN3 domain) LSAPKNLVVSRVTEDSARLSWTAPDAAFDSFGILYYEPVDSGEAITLPIPGSERSYDLTGLKPGTEYWVVITGVKGGAPSTPLGAIFTT
Q = P282ER9P1360_H10 (designed binder, FN3 domain) LPAPKNLVVSRVTEDSARLSWTAPDAAFDSFEIYYPEWPFAGEAIGLPVPGSERSYDLTGLKPGTEYFVVIYGVKGGELSEPLTAQFTT
Thinking about recorded Cyno T-cell Binding 0.2 uM (MFI) values, which is higher, P or Q ? Refer to your chosen entry by its label in the reply.
P
